- tested-target: ABCG2 (BCRP) (Homo sapiens, UniProt Q9UNQ0)
- Sequence (Q9UNQ0 whole entry): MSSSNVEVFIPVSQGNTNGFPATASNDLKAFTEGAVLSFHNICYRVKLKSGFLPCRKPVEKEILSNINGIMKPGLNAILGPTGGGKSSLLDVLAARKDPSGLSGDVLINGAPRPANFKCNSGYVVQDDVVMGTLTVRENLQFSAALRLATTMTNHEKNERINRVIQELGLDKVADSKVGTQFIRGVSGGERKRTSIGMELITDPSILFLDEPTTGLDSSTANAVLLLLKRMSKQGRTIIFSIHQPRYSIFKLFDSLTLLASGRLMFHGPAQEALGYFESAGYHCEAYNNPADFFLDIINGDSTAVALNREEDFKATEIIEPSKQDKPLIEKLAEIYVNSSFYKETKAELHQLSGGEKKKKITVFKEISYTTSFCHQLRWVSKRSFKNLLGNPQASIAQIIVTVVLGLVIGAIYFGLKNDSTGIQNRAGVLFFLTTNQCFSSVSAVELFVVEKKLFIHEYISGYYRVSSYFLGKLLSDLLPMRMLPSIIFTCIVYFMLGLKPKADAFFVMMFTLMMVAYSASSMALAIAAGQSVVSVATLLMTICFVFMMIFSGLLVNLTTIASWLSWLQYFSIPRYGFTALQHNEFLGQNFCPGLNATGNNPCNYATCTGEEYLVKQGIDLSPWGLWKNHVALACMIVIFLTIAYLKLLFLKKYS
- test-protocol: pheophorbide A assay, ABCG2-expressing MDCK II BCRP cells
- condition: human, ABCG2-expressing MDCK II BCRP cells, probe pheophorbide A (0.5 μM final)
Provide the reported inhibition at 120 min, 10 μM of each item.

chemical-structure: COC(=O)/C(C#N)=C/c1cn(CC(=O)Nc2ccccc2OC)c2ccccc12
value: ≥ 20%

Here is another compound to look at.
Req: Which value of inhibition at 120 min, 10 μM has been reported for "COC(=O)/C(C#N)=C/c1cn(CC(=O)Nc2cccc(OC)c2)c2ccccc12" in the records?
Resp: ≥ 20%
